Target: human PCSK9 / human LDLR EGFa domain interaction (Homo sapiens)
Sequence (Q8NBP7 153-692): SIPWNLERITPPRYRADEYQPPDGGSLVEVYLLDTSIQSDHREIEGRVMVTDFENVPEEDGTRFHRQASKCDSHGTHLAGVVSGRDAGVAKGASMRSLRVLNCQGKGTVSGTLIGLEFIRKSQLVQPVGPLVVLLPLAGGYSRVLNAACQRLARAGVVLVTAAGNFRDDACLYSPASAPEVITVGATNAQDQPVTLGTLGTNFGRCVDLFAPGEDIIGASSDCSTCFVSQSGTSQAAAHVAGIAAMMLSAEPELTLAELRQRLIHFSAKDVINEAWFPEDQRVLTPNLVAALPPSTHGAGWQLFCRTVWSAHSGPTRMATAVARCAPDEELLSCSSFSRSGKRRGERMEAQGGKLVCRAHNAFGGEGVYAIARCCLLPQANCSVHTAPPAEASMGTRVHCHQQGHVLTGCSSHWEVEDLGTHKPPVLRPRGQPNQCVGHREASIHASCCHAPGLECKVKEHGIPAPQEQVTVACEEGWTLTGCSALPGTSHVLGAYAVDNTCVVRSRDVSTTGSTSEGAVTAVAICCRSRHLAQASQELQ
Sequence (Q8NBP7 31-152 partner limits assumed): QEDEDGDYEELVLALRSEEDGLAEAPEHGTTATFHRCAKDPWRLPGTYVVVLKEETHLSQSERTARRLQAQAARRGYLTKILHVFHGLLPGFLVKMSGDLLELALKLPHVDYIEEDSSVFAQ
Assay: TR-FRET assay of inhibition of the PCSK9-LDLR protein-protein interaction
Assay type: binding
Details: 20 nM avitag-biotinylated human PCSK9, 20 nM his-tagged human LDLR EGFa domain, 2 hours, room temperature
pIC50: −log10 of the molar value. Numbered stars: 1 amine (or outer) side, 2 acyl side, 3 side chain; on linkers, the order of the positions; unused ones are H or OH. Bridge positions count the residues as written; N and C are the ends. Square brackets hold non-standard residues; d marks the D form. Peptide text beside a SMILES is read from it. Trp(7-aza) = N[C@@H](Cc1c[nH]c2ncccc12)C(=O)O; mXylylene = c1cc(C[*:1])cc(C[*:2])c1; Bta = N[C@@H](Cc1csc2ccccc12)C(=O)O; Aad = N[C@@H](CCCC(=O)O)C(=O)O; Chg = N[C@H](C(=O)O)C1CCCCC1; Tle = CC(C)(C)[C@H](N)C(=O)O; αMeV = CC(C)[C@](C)(N)C(=O)O; S5 = C=CCCC[C@](C)(N)C(=O)O; Iva = CC[C@](C)(N)C(=O)O; NMeA = CN[C@@H](C)C(=O)O; Nva = CCC[C@H](N)C(=O)O; Mpa = O=C(O)CCS
parameter measured: pIC50

molecule: CCC[C@@H]1NC(=O)[C@H](Cc2csc3ccccc23)NC(=O)[C@H]([C@@H](C)O)NC(=O)[C@H](Cc2c[nH]cn2)NC(=O)[C@H](Cc2ccc(O)cc2)NC(=O)[C@H](C(C)(C)C)NC(=O)CCSCc2cccc(c2)CSC[C@@H](C(N)=O)NC(=O)[C@H]([C@@H](C)O)NC(=O)[C@H](CCC)NC(=O)[C@H](Cc2ccc(O)cc2)NC(=O)[C@H](CCC(=O)O)NC1=O [Compound 275] ([Mpa][Tle]YHT[Bta][Nva]EY[Nva]TC-NH2; linker 1-12 via mXylylene)
target or test system: human PCSK9 / human LDLR EGFa domain interaction (Homo sapiens)
parameter measured: pIC50
endpoint result: 6.00 to 7.00
//
molecule: CCC[C@@H]1NC(=O)[C@H]([C@@H](C)O)NC(=O)[C@@H]2CCCN2C(=O)[C@H](Cc2ccc(O)cc2)NC(=O)[C@H](C(C)(C)C)NC(=O)[C@@H](NC(C)=O)CSCc2cccc(c2)CSC[C@@H](C(N)=O)NC(=O)[C@H]([C@@H](C)O)NC(=O)[C@](C)(C(C)C)NC(=O)[C@H](Cc2ccc(O)cc2)NC(=O)[C@H](C)NC1=O [Compound 173] (Ac-C[Tle]YPT[Nva]AY[αMeV]TC-NH2; linker 1-11 via mXylylene)
target or test system: human PCSK9 / human LDLR EGFa domain interaction (Homo sapiens)
parameter measured: pIC50
endpoint result: 6.00 to 7.00
//
molecule: C=CCCC[C@]1(C)NC(=O)[C@H](CCC)NC(=O)[C@H](Cc2ccc(O)cc2)NC(=O)[C@H](C)NC(=O)[C@](C)(CC)NC(=O)[C@H](Cc2c[nH]c3ncccc23)NC(=O)[C@H]([C@@H](C)O)NC(=O)[C@@H]2CCCN2C(=O)[C@H](Cc2ccc(O)cc2)NC(=O)[C@H](C(C)(C)C)NC(=O)[C@@H](NC(C)=O)CCCC(=O)NCCCC[C@@H](C(N)=O)NC1=O [Compound 050] (Ac-[Aad][Tle]YPT[Trp(7-aza)][Iva]AY[Nva][S5]K-NH2; lactam 1-12)
target or test system: human PCSK9 / human LDLR EGFa domain interaction (Homo sapiens)
parameter measured: pIC50
endpoint result: 4.68 to 6.00
//
molecule: CCC[C@@H]1NC(=O)[C@H](Cc2ccc(O)cc2)NC(=O)[C@H](CCC(=O)O)NC(=O)[C@H](C2CCCCC2)NC(=O)[C@H](Cc2c[nH]c3ncccc23)NC(=O)[C@H]([C@@H](C)O)NC(=O)[C@H](Cc2c[nH]cn2)NC(=O)[C@H](Cc2ccc(O)cc2)NC(=O)[C@H](C(C)(C)C)NC(=O)CCSCc2cccc(c2)CSC[C@@H](C(N)=O)NC(=O)[C@H]([C@@H](C)O)NC1=O [Compound 273] ([Mpa][Tle]YHT[Trp(7-aza)][Chg]EY[Nva]TC-NH2; linker 1-12 via mXylylene)
target or test system: human PCSK9 / human LDLR EGFa domain interaction (Homo sapiens)
parameter measured: pIC50
endpoint result: 6.00 to 7.00
//
molecule: CCC[C@@H]1NC(=O)[C@H](Cc2ccc(O)cc2)NC(=O)[C@H](CCC(=O)O)NC(=O)[C@H](C)N(C)C(=O)[C@H](Cc2c[nH]c3ncccc23)NC(=O)[C@H]([C@@H](C)O)NC(=O)[C@H](Cc2c[nH]cn2)NC(=O)[C@H](Cc2ccc(O)cc2)NC(=O)[C@H](C(C)(C)C)NC(=O)CCSCc2cccc(c2)CSC[C@@H](C(N)=O)NC(=O)[C@H]([C@@H](C)O)NC1=O [Compound 207] ([Mpa][Tle]YHT[Trp(7-aza)][NMeA]EY[Nva]TC-NH2; linker 1-12 via mXylylene)
target or test system: human PCSK9 / human LDLR EGFa domain interaction (Homo sapiens)
parameter measured: pIC50
endpoint result: 4.00 to 4.30

These data points were gathered from patent US11814444B2.
